Data provenance: ChEMBL document CHEMBL4665801

- PROTOCOL SUMMARY: Cmax in CD-1 mouse at 50 mg/kg, po and measured up to 24 hrs by LC/MS-MS analysis
- Format: ADME, organism-based
- Set-up: route oral, dose 50 mg/kg, time <=24
- CONDITION PARAMETERS: in vivo
PROPERTY NAME: Cmax (ng/mL)

1. Cc1ccc(C#Cc2cc(-c3nn(-c4nc(C(=O)O)cs4)c(CC4CC4)c3Cc3ccc(S(N)(=O)=O)c(F)c3)ccc2F)o1
2. Cc1ccc(C#Cc2cc(-c3nn(-c4nc(C(=O)O)cs4)c(CCC4CC4)c3Cc3ccc(S(N)(=O)=O)c(F)c3)ccc2F)s1
3. Cc1ccc(C#Cc2cccc(-c3nn(-c4nc(C(=O)O)cs4)c(CC4CC4)c3Cc3ccc(S(N)(=O)=O)c(F)c3)c2)o1
4. Cc1ccc(C#Cc2cccc(-c3nn(-c4nc(C(=O)O)cs4)c(CCC4CC4)c3Cc3ccc(S(N)(=O)=O)c(F)c3)c2)s1
QUERY: Order the entries above by descending Cmax. Enter labels, ranked according to the request.
RESULT: 4, 2, 3, 1

----------
Listed below: IC50 values for each entry.
- System: MIA PaCa-2
- PROTOCOL SUMMARY: Cytotoxicity against human MIA PaCa-2 cells assessed as reduction in cell viability after 48 hrs by CellTiter-Glo assay
- Format: functional, cell-based
- CONDITION PARAMETERS: MIA PaCa-2, 48 h
Output spec: scalar in nM, unitless text.

[[record]]
compound = "NS(=O)(=O)c1ccc(Cc2c(-c3cccc(-c4ccccc4)c3)nn(-c3nc(C(=O)O)cs3)c2CCC2CC2)cc1"
tested_system = "MIA PaCa-2"
property_name = "IC50"
measurement = 6200


response.value for `Cc1cc(C#Cc2cccc(-c3nn(-c4nc(C(=O)O)cs4)c(CC4CC4)c3Cc3ccc(S(N)(=O)=O)c(F)c3)c2)cs1` (field: IC50) = 332

IC50 reading for `NS(=O)(=O)c1ccc(Cc2c(-c3ccc(F)c(C#CCCO)c3)nn(-c3nc(C(=O)O)cs3)c2CC2CC2)cc1F` : 1330

For reference, reported IC50 for `NS(=O)(=O)c1ccc(Cc2c(-c3ccc(F)c(C#CCC4CC4)c3)nn(-c3nc(C(=O)O)cs3)c2CC2CC2)cc1F` stands at 1030

The compound listed as `CC(C)(C)C#Cc1cc(-c2nn(-c3nc(C(=O)O)cs3)c(CC3CC3)c2Cc2ccc(S(N)(=O)=O)c(F)c2)ccc1F` shows IC50 equal to 845

Input `Cc1cc(C#Cc2cccc(-c3nn(-c4nc(C(=O)O)cs4)c(CCC4CC4)c3Cc3ccc(S(N)(=O)=O)c(F)c3)c2)c(C)s1` . Output IC50: 402

Noted for `CCC#Cc1cc(-c2nn(-c3nc(C(=O)O)cs3)c(CC3CC3)c2Cc2ccc(S(N)(=O)=O)c(F)c2)ccc1F` : its IC50 reads 662

// IC50 lookup, compound = `NS(=O)(=O)c1ccc(Cc2c(-c3cccc(C#Cc4ccc(C(F)F)s4)c3)nn(-c3nc(C(=O)O)cs3)c2CC2CC2)cc1F` , result: 528

Sure, the documented IC50 for `NS(=O)(=O)c1ccc(Cc2c(-c3ccc(F)c(C#CC4CCCC4)c3)nn(-c3nc(C(=O)O)cs3)c2CC2CC2)cc1F` is 314

Item: CC(F)C#Cc1cc(-c2nn(-c3nc(C(=O)O)cs3)c(CC3CC3)c2Cc2ccc(S(N)(=O)=O)c(F)c2)ccc1F (centres undefined) | IC50: 1020

Record `CC#Cc1cc(-c2nn(-c3nc(C(=O)O)cs3)c(CC3CC3)c2Cc2ccc(S(N)(=O)=O)c(F)c2)ccc1F` . Reported IC50: 322

Sure, the documented IC50 for `COCC#Cc1cc(-c2nn(-c3nc(C(=O)O)cs3)c(CC3CC3)c2Cc2ccc(S(N)(=O)=O)c(F)c2)ccc1F` is 1090

----------
- TESTED SYSTEM: L-lactate dehydrogenase A chain (Homo sapiens)
- PROTOCOL SUMMARY: Inhibition of LDHA in human A673 cells assessed as decrease in lactate production incubated for 2 hrs by lactate oxidase-coupled fluorescence based assay
- Type: cell-based
pIC50: −log10 of the molar value.
PROPERTY NAME: pIC50

[[record]]
test_smiles = "Cc1ncc(C#Cc2cccc(-c3nn(-c4nc(C(=O)O)cs4)c(CC4CC4)c3Cc3ccc(S(N)(=O)=O)c(F)c3)c2)s1"
tested_system = "L-lactate dehydrogenase A chain (Homo sapiens)"
measurement = 6.15

[[record]]
test_smiles = "Cc1ccc(C#Cc2cc(-c3nn(-c4nc(C(=O)O)cs4)c(CC4CC4)c3Cc3ccc(S(N)(=O)=O)c(F)c3)ccc2F)s1"
tested_system = "L-lactate dehydrogenase A chain (Homo sapiens)"
measurement = 6.06

[[record]]
test_smiles = "NS(=O)(=O)c1ccc(Cc2c(-c3cccc(C#Cc4ccc(Cl)s4)c3)nn(-c3nc(C(=O)O)cs3)c2CC2CC2)cc1F"
tested_system = "L-lactate dehydrogenase A chain (Homo sapiens)"
measurement = 6.66

[[record]]
test_smiles = "CC(C)C#Cc1cc(-c2nn(-c3nc(C(=O)O)cs3)c(CC3CC3)c2Cc2ccc(S(N)(=O)=O)c(F)c2)ccc1F"
tested_system = "L-lactate dehydrogenase A chain (Homo sapiens)"
measurement = 6.55

[[record]]
test_smiles = "Cc1cnc(C#Cc2cc(-c3nn(-c4nc(C(=O)O)cs4)c(CC4CC4)c3Cc3ccc(S(N)(=O)=O)c(F)c3)ccc2F)s1"
tested_system = "L-lactate dehydrogenase A chain (Homo sapiens)"
measurement = 5.88


A. Cc1ncc(C#Cc2cc(-c3nn(-c4nc(C(=O)O)cs4)c(CC4CC4)c3Cc3ccc(S(N)(=O)=O)c(F)c3)ccc2F)s1
B. NS(=O)(=O)c1ccc(Cc2c(-c3cccc(C#Cc4ccc(C(F)F)s4)c3)nn(-c3nc(C(=O)O)cs3)c2CC2CC2)cc1F
QUERY: Task for the reader: decide whether A or B has the larger pIC50. I would appreciate it if you answered with the label of your choice.
RESULT: B
(B: 6.46, A: 6.03)

----------
- PROTOCOL SUMMARY: Oral bioavailability in CD-1 mouse at 50 mg/kg and measured up to 24 hrs by LC/MS-MS analysis
- Type: ADME, organism-based
- CONDITION PARAMETERS: in vivo
PROPERTY NAME: F (%)

Before answering, review these 2 worked examples.
[[record]]
test_smiles = "Cc1ncc(C#Cc2cc(-c3nn(-c4nc(C(=O)O)cs4)c(CC4CC4)c3Cc3ccc(S(N)(=O)=O)c(F)c3)ccc2F)s1"
display_unit = "%"
measurement = 38

[[record]]
test_smiles = "Cc1ccc(C#Cc2cc(-c3nn(-c4nc(C(=O)O)cs4)c(CC4CC4)c3Cc3ccc(S(N)(=O)=O)c(F)c3)ccc2F)o1"
display_unit = "%"
measurement = 106


P. NS(=O)(=O)c1ccc(Cc2c(-c3ccc(F)c(/C=C/C4CCCC4)c3)nn(-c3nc(C(=O)O)cs3)c2CC2CC2)cc1F
Q. Cc1ccc(C#Cc2cc(-c3nn(-c4nc(C(=O)O)cs4)c(CCC4CC4)c3Cc3ccc(S(N)(=O)=O)c(F)c3)ccc2F)s1
QUERY: Min F? P | Q Please reply using the label of the selected record.
RESULT: Q

----------
- TESTED SYSTEM: L-lactate dehydrogenase A chain (Homo sapiens)
- PROTOCOL SUMMARY: Inhibition of GS[HiBiT]GS-tagged LDHA (unknown origin) expressed in HEK-293T cells measured after 1 hr by […]
- Format: cell-based
pIC50: −log10 of the molar value.
PROPERTY NAME: pIC50

[[record]]
compound = "NS(=O)(=O)c1ccc(Cc2c(-c3cccc(C#Cc4ccc(C(F)(F)F)s4)c3)nn(-c3nc(C(=O)O)cs3)c2CC2CC2)cc1F"
property_name = "pIC50"
measurement = 6.95

[[record]]
compound = "CC(F)C#Cc1cc(-c2nn(-c3nc(C(=O)O)cs3)c(CC3CC3)c2Cc2ccc(S(N)(=O)=O)c(F)c2)ccc1F (centres undefined)"
property_name = "pIC50"
measurement = 6.90


a. C/C=C/c1cc(-c2nn(-c3nc(C(=O)O)cs3)c(CC3CC3)c2Cc2ccc(S(N)(=O)=O)c(F)c2)ccc1F
b. Cc1ncc(C#Cc2cccc(-c3nn(-c4nc(C(=O)O)cs4)c(CC4CC4)c3Cc3ccc(S(N)(=O)=O)c(F)c3)c2)s1
QUERY: // max by pIC50 over [ a , b ] Provide the label of your selected option as the answer.
RESULT: b

----------
- PROTOCOL SUMMARY: Kinetic aqueous solubility of the compound in pH 7.4 PBS buffer at 150 uM measured after 6 hrs by shake flask method
- Assay type: physicochemical
- CONDITION PARAMETERS: read-out: Kinetic_solubility
Item-by-item account of solubility kinetic at 6 h, 150 µM

[[record]]
test_smiles = "Cc1ccc(C#Cc2cccc(-c3nn(-c4nc(C(=O)O)cs4)c(CC4CC4)c3Cc3ccc(S(N)(=O)=O)c(F)c3)c2)s1"
property_name = "solubility kinetic at 6 h, 150 µM"
measurement = "> 70 µg/mL"


Turning now to a further compound:
Entry `Cc1ccc(C#Cc2cc(-c3nn(-c4nc(C(=O)O)cs4)c(CC4CC4)c3Cc3ccc(S(N)(=O)=O)c(F)c3)ccc2F)s1` — recorded solubility kinetic at 6 h, 150 µM = > 70 µg/mL
